- System: MRC5
- experimental_protocol: Cytotoxicity against human MRC5 cells assessed as reduction in cell viability at 50 ug/ml relative to control
- Type: toxicity, cell-based
- setup_conditions: at 50 µg/mL
Simple rule here: Activity less than 4% is Fulfilled, otherwise Not fulfilled.

INPUT: Please state whether Activity is below 4% for "COc1cc2c3c(c1OC)-c1ccccc1C[C@H]3N(C(=O)c1cc[n+](Cc3ccccc3Cl)cc1)CC2.[Br-]"
OUTPUT: Not fulfilled

INPUT: Please state whether Activity is below 4% for COc1cc2c3c(c1OC)-c1ccccc1CC3N(C(=O)c1cc[n+](Cc3ccccc3Cl)cc1)CC2.[Br-] (racemic)
OUTPUT: Fulfilled

INPUT: Please state whether Activity is below 4% for COc1cc2c3c(c1OC)-c1ccccc1CC3N(C(=O)c1cc[n+](Cc3ccccc3)cc1)CC2.[Br-] (racemic)
OUTPUT: Fulfilled

INPUT: Please state whether Activity is below 4% for COc1cc2c3c(c1OC)-c1ccccc1CC3N(C(=O)c1cc[n+](Cc3ccc(F)cc3)cc1)CC2.[Br-] (racemic)
OUTPUT: Fulfilled

INPUT: Please state whether Activity is below 4% for "COc1cc2c3c(c1OC)-c1ccccc1C[C@@H]3N(C(=O)c1cc[n+](Cc3ccccc3Cl)cc1)CC2.[Br-]"
OUTPUT: Not fulfilled

---

The listing below reports pKi for compounds tested on Acetylcholinesterase (Electrophorus electricus, UniProt O42275).
Sequence (O42275 whole entry): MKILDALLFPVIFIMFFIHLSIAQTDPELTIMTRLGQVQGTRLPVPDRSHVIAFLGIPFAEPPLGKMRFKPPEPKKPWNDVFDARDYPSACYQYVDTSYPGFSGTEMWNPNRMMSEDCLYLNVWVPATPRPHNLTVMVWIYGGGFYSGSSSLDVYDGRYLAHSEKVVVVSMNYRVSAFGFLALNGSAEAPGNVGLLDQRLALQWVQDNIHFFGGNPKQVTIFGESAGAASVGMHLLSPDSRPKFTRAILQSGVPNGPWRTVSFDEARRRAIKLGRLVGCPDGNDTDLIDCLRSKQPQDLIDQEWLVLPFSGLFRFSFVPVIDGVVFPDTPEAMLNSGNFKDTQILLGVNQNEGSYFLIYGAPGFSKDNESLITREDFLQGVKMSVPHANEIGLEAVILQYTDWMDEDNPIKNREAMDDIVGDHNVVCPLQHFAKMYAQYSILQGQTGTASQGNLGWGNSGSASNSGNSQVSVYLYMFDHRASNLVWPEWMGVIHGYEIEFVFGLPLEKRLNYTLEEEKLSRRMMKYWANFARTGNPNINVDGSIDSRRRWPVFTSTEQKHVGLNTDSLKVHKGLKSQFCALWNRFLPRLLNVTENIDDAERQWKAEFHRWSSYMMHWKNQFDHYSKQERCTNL
// pKi: -log10(molar conc.)

Please review the entries below; each comes with its answer.
>>> val("COc1cc2c3c(c1OC)-c1ccccc1C[C@H]3N(C(=O)c1cc[n+](Cc3ccccc3Cl)cc1)CC2.[Br-]")
5.78
>>> val("COc1cc2c3c(c1OC)-c1ccccc1C[C@@H]3N(C(=O)c1cc[n+](Cc3ccccc3)cc1)CC2")
6.77
>>> val("COc1cc2c3c(c1OC)-c1ccccc1C[C@H]3N(C(=O)c1cc[n+](Cc3ccc(F)cc3)cc1)CC2")
5.16

INPUT: Provide measured pKi value, entry: "COc1cc2c3c(c1OC)-c1ccccc1C[C@@H]3N(C(=O)c1cc[n+](Cc3ccccc3Cl)cc1)CC2.[Br-]"
OUTPUT: 6.66

INPUT: Provide measured pKi value, entry: "COc1cc2c3c(c1OC)-c1ccccc1C[C@@H]3N(C(=O)c1cc[n+](Cc3ccc(F)cc3)cc1)CC2"
OUTPUT: 6.57

INPUT: Provide measured pKi value, entry: "COc1cc2c3c(c1OC)-c1ccccc1C[C@H]3N(C(=O)c1cc[n+](Cc3ccccc3)cc1)CC2"
OUTPUT: 5.59

---

- system_tested: UniProt:O42275
Simple rule here: IC50 less than 400 nM is satisfied, otherwise not satisfied.

Consider the following illustrative entries.
>>> class_label("COc1cc2c3c(cc4ccccc4c3c1OC)N(C(=O)c1cc[n+](Cc3ccccc3F)cc1)CC2")
"not satisfied"
>>> class_label("COc1cc2c3c(c1OC)-c1ccccc1CC3N(C(=O)c1cc[n+](Cc3ccc(F)cc3)cc1)CC2.[Br-] (racemic)")
"not satisfied"
>>> class_label("COc1cc2c3c(c1OC)-c1ccccc1C[C@@H]3N(C(=O)c1cc[n+](Cc3ccccc3)cc1)CC2")
"satisfied"

INPUT: Please state whether IC50 is below 400 nM for "COc1cc2c3c(c1OC)-c1ccccc1C[C@@H]3N(C(=O)c1cc[n+](Cc3ccc(F)cc3)cc1)CC2"
OUTPUT: satisfied

INPUT: Please state whether IC50 is below 400 nM for COc1cc2c3c(c1OC)-c1ccccc1CC3N(C(=O)c1cc[n+](Cc3ccccc3)cc1)CC2.[Br-] (racemic)
OUTPUT: satisfied

INPUT: Please state whether IC50 is below 400 nM for "COc1cc2c3c(c1OC)-c1ccccc1C[C@H]3N(C(=O)c1cc[n+](Cc3ccc(F)cc3)cc1)CC2"
OUTPUT: not satisfied
